System: normal patient-derived duodenal organoids
Assay: Chemotherapy drug toxicity screen with human duodenum organoids, label-free timelapse imaging analysed by SPOT
observed-property: temporal phenotype trajectory

>  <compound>
COc1cc2ncnc(Nc3ccc(F)c(Cl)c3)c2cc1OCCCN1CCOCC1 [gefitinib, Gefitinib]

>  <observed-property>
temporal phenotype trajectory

>  <endpoint-result>
milder toxicity

$$$$
>  <compound>
O=c1[nH]cc(F)c(=O)[nH]1 [5-fluorouracil]

>  <observed-property>
temporal phenotype trajectory

>  <endpoint-result>
milder toxicity

$$$$
